# Target of assay: 5-hydroxytryptamine receptor 2A (Homo sapiens)
pKi: −log10 of the molar value.
Response key: true (1) means pKi >= 6; false (0) means pKi < 6.

The following compounds have reported results that may help.
compound_string=Cc1ccc2c(c1Br)CCN2C(=O)Nc1cccnc1 category="true (1)"
compound_string=CSc1cc2c(cc1C#N)N(C(=O)Nc1cccnc1)CC2 category="false (0)"

Request: Assess whether reported pKi for O=C(Nc1cccnc1)N1CCc2ccc(Cl)c(Cl)c21 sits at 6 or higher.
Response: false (0)

Request: Repeat with CSc1c(Cl)cc2c(c1Cl)CCN2C(=O)Nc1cccnc1
Response: true (1)

Request: Moving on to O=C(Nc1cccnc1)N1CCc2cc(Cl)c(Cl)cc21
Response: true (1)

Request: Repeat with O=C(Nc1cccnc1)N1CCc2cc(-c3ccccc3)ccc21
Response: false (0)

====

# Target of assay: 5-hydroxytryptamine receptor 2B (Homo sapiens, UniProt P41595)
# Sequence (P41595 whole entry): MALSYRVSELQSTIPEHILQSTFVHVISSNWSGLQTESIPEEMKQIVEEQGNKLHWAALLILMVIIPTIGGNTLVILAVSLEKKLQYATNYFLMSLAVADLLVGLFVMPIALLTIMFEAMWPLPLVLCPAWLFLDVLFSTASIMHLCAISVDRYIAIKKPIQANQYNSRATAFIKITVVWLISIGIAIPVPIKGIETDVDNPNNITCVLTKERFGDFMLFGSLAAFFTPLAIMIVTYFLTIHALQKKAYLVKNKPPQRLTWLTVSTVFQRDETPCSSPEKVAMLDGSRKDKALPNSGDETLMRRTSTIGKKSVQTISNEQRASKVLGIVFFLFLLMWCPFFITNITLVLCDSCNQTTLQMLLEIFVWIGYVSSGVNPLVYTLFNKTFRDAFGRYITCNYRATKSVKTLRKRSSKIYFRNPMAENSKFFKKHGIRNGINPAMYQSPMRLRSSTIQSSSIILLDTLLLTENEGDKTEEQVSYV
Documented Ki across a set of compounds
Please give a number only; it is taken to be in nM.

compound_string=CC(C)(C)c1cc2c(cc1Cl)N(C(=O)Nc1cccnc1)CC2 target_of_assay="5-hydroxytryptamine receptor 2B (Homo sapiens, UniProt P41595)" readout_number=158

Request: Consider the compound CCSc1cc2c(cc1C(F)(F)F)N(C(=O)Nc1cccnc1)CC2 and give its measured Ki.
Response: 10

Request: Query CC(C)Oc1cc2c(cc1C(F)(F)F)N(C(=O)Nc1cccnc1)CC2 next
Response: 3.98

====

# Species on record: Rattus norvegicus
# Protocol notes: The dose required to reverse […]- induced hypolocomotion in rat by 50 %
# Format: functional
# Setup conditions: ip, 0.5 h, read-out: ID50 (the source's name)
Listing of recorded ED50 by entry.

Below are worked cases with known answers.
compound_string=COC(=O)c1cc2c(cc1Cl)N(C(=O)Nc1cccnc1)CC2 assay_metric=ED50 result="16 mg/kg"
compound_string=CC(C)Oc1cc2c(cc1Cl)N(C(=O)Nc1cccnc1)CC2 assay_metric=ED50 result="4 mg/kg"
compound_string=COc1cc2c(cc1Br)N(C(=O)Nc1cccnc1)CC2 assay_metric=ED50 result="1.8 mg/kg"
compound_string=CSc1cc2c(cc1C(F)(F)C(F)(F)F)N(C(=O)Nc1cccnc1)CC2 assay_metric=ED50 result="5 mg/kg"
compound_string=CCSc1cc2c(cc1C(F)(F)F)N(C(=O)Nc1cccnc1)CC2 assay_metric=ED50 result="4.4 mg/kg"
compound_string=CSc1cc2c(cc1I)N(C(=O)Nc1cccnc1)CC2 assay_metric=ED50 result="3.2 mg/kg"
compound_string=CCOc1cc2c(cc1Cl)N(C(=O)Nc1cccnc1)CC2 assay_metric=ED50 result="3.4 mg/kg"
compound_string=CSc1cc2c(cc1Br)N(C(=O)Nc1cccnc1)CC2 assay_metric=ED50 result="3 mg/kg"

Request: Dear colleague, I am looking for the recorded ED50 of the following compound: CSc1cc2c(cc1C(F)(F)F)N(C(=O)Nc1cccnc1)CC2
Response: 1.2 mg/kg

Request: Moving on to COc1cc2c(cc1C(F)(F)F)N(C(=O)Nc1cccnc1)CC2
Response: 0.8 mg/kg

Request: Would you mind doing CC(C)Oc1cc2c(cc1C(F)(F)F)N(C(=O)Nc1cccnc1)CC2 as well?
Response: 1.4 mg/kg

Request: Please give the result for CCOc1cc2c(cc1C(F)(F)F)N(C(=O)Nc1cccnc1)CC2 too.
Response: 1 mg/kg

====

# Target of assay: 5-hydroxytryptamine receptor 2C (Homo sapiens)
# Sequence (P28335 whole entry): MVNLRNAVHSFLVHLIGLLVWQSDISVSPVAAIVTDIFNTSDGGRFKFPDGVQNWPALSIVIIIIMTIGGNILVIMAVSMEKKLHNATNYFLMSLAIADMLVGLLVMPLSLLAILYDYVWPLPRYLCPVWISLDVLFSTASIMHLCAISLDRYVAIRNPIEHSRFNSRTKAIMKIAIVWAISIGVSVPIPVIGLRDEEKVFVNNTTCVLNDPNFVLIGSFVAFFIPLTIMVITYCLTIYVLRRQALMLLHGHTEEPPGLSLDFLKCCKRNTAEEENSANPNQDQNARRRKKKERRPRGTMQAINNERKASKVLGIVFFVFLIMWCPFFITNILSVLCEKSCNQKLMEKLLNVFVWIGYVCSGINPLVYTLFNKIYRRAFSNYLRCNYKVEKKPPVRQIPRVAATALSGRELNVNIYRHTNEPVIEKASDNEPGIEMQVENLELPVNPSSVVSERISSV
Assay metric: pKi
In textbook form, pKi equals minus log to base ten of the concentration in mol/L.

Look over these answered cases.
compound_string=CC(C)Oc1cc2c(cc1Cl)N(C(=O)Nc1cccnc1)CC2 readout_number=7.80
compound_string=O=C(Nc1cccnc1)N1CCc2ccc(Cl)cc21 readout_number=7.30
compound_string=O=C(Nc1cccnc1)N1CCc2cc(Cl)c(Cl)cc21 readout_number=8.10
compound_string=O=C(Nc1cccnc1)N1CCc2ccc(C(F)(F)F)cc21 readout_number=7.30
compound_string=O=C(Nc1cccnc1)N1CCc2c(Cl)cccc21 readout_number=6.30

Request: GET /values?readout=pKi&item= COC(=O)c1cc2c(cc1Cl)N(C(=O)Nc1cccnc1)CC2
Response: 7.50

Request: Here is the next molecule: Cc1ccc2c(c1Br)CCN2C(=O)Nc1cccnc1
Response: 8.10

====

Let's go through some Ki measurements on 5-hydroxytryptamine receptor 2A (Homo sapiens, UniProt P28223) together.
Sequence (P28223 whole entry): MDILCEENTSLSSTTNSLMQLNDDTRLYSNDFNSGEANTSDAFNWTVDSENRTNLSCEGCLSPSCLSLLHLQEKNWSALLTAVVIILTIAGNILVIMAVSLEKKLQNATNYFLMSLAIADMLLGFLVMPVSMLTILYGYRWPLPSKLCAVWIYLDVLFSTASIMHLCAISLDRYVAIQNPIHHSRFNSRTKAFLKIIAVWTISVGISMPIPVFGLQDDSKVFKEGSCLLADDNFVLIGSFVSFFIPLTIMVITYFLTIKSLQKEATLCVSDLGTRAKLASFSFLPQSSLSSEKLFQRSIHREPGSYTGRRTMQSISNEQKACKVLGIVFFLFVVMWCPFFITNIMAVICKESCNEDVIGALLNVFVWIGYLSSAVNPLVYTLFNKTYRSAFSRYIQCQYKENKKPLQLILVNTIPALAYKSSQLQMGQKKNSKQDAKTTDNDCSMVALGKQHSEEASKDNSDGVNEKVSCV
The answer is to be given in µM; state only the numeric part.

Known Ki results, listed for orientation:
compound_string=COc1cc2c(cc1C(F)(F)C(F)(F)F)N(C(=O)Nc1cccnc1)CC2 target_of_assay="5-hydroxytryptamine receptor 2A (Homo sapiens, UniProt P28223)" assay_metric=Ki readout_number=3.98
compound_string=Cc1c(Cl)cc2c(c1Cl)CCN2C(=O)Nc1cccnc1 target_of_assay="5-hydroxytryptamine receptor 2A (Homo sapiens, UniProt P28223)" assay_metric=Ki readout_number=0.0316
compound_string=COC(=O)c1cc2c(cc1Cl)N(C(=O)Nc1cccnc1)CC2 target_of_assay="5-hydroxytryptamine receptor 2A (Homo sapiens, UniProt P28223)" assay_metric=Ki readout_number=6.31

Now let's try a different one.
Request: Any idea what its Ki is? The compound is O=C(Nc1cccnc1)N1CCc2cc(Cl)ccc21
Response: 2.51

====

# Target of assay: 5-hydroxytryptamine receptor 2A (Homo sapiens)
In plain terms, low Ki, meaning strictly below 3000 nM, gives class 1, and everything else gives class 0.

compound_string=Cc1ccc2c(c1I)CCN2C(=O)Nc1cccnc1 category="class 1"
compound_string=CSc1cc2c(cc1I)N(C(=O)Nc1cccnc1)CC2 category="class 1"
compound_string=CCCSc1cc2c(cc1C(F)(F)F)N(C(=O)Nc1cccnc1)CC2 category="class 0"
compound_string=COc1cc2c(cc1C(F)(F)F)N(C(=O)Nc1cccnc1)CC2 category="class 1"
compound_string=O=C(Nc1cccnc1)N1CCc2cc(Br)cc([N+](=O)[O-])c21 category="class 0"
compound_string=Cc1cc2c(cc1I)N(C(=O)Nc1cccnc1)CC2 category="class 1"

Request: Lab note: Ki threshold 3000 nM. Does this molecule come in strictly under it? O=C(Nc1cccnc1)N1CCc2c(Cl)cccc21
Response: class 0

Request: One more molecule: Cc1cc2c(cc1Cl)CCN2C(=O)Nc1cccnc1
Response: class 1

Request: Try the molecule CC(C)c1cc2c(cc1Cl)N(C(=O)Nc1cccnc1)CC2
Response: class 1

====

Here's a batch of molecules along with measured pKi for 5-hydroxytryptamine receptor 2C (Homo sapiens).
Please express pKi as -log10 of the molar concentration.

Here's what some known entries look like.
compound_string=CC(=O)c1cc2c(cc1C(F)(F)F)N(C(=O)Nc1cccnc1)CC2 assay_metric=pKi readout_number=7.30
compound_string=CC(C)Sc1cc2c(cc1C(F)(F)F)N(C(=O)Nc1cccnc1)CC2 assay_metric=pKi readout_number=7.50
compound_string=Cc1cc2c(cc1I)N(C(=O)Nc1cccnc1)CC2 assay_metric=pKi readout_number=8.50
compound_string=CCSc1cc2c(cc1C(F)(F)F)N(C(=O)Nc1cccnc1)CC2 assay_metric=pKi readout_number=8.50

Next:
Request: Could you share which pKi value was measured for O=C(Nc1cccnc1)N1CCc2ccccc21 ?
Response: 5.90

====

# Target of assay: 5-hydroxytryptamine receptor 2A (Homo sapiens)
Listed here: items and their measured pKi.
For clarity, pKi is expressed as the negative log10 of concentration in mol/L.

Some solved entries appear below for comparison.
compound_string=O=C(Nc1cccnc1)N1CCc2ccc(Cl)cc21 target_of_assay="5-hydroxytryptamine receptor 2A (Homo sapiens)" readout_number=6.10
compound_string=CSc1ccc2c(c1)CCN2C(=O)Nc1cccnc1 target_of_assay="5-hydroxytryptamine receptor 2A (Homo sapiens)" readout_number=5.40

Next, consider the following molecule.
Request: Name the recorded pKi for Cc1ccc2c(c1)CCN2C(=O)Nc1cccnc1 .
Response: 5.30
